Reference for the values: patent US8415475B2

Overview of reported IC90 values STA 1 B29213 across a group of molecules:
Test system: Staphylococcus aureus (ATCC29213)
Test: In-vitro anti-bacterial microtitre plate assay, IC90, S. aureus
Assay type: cell-based
Conditions: 90% inhibitory concentration for bacterial growth, 24 hours, resazurin fluorescence
Expressed in µg/mL, but write only the number.

Please review the following examples before continuing.
molecule	assayed-system	IC90 values STA 1 B29213, µg/mL
C=Cc1ccc2nc(OC)c(C(c3ccccc3)C(O)(CCc3ccc(F)cc3)CCN(C)C)cc2c1 (single isomer, unassigned)	Staphylococcus aureus (ATCC29213)	1.6
C/C=C/c1ccc2nc(OC)c(C(c3ccccc3)C(O)(CCN(C)C)c3cccc4ccccc34)cc2c1 (single isomer, unassigned)	Staphylococcus aureus (ATCC29213)	51.7
COc1nc2ccc(CN(C)C)cc2cc1C(c1ccccc1)C(O)(CCN(C)C)c1cccc2ccccc12 (single isomer, unassigned)	Staphylococcus aureus (ATCC29213)	9.5
C=Cc1ccc2nc(OC)c(C(c3ccccc3)C(O)(CCN(C)C)c3cccc4ccccc34)cc2c1 (single isomer, unassigned)	Staphylococcus aureus (ATCC29213)	50.3
C=Cc1ccc2nc(OC)c(C(c3ccc(Cl)cc3)C(O)(CCN(C)C)c3ccccc3)cc2c1 (single isomer, unassigned)	Staphylococcus aureus (ATCC29213)	48.7

// moving on: another record for IC90 values STA 1 B29213
The value of IC90 values STA 1 B29213 measured for the molecule COc1nc2ccc(CN)cc2cc1C(c1ccccc1)C(O)(CCN(C)C)c1cccc2ccccc12 (stereo not drawn) [Compound 18] turned out to be 8.0
